PROCEDURE_DETAILS: Solubility of fluasterone in solvents and mixed solvents
Format: physicochemical
EXPERIMENTAL_PARAMETERS: cetyl alcohol:ethanol mixtures (20-22% cetyl alcohol), organic solvent or mixture, thermodynamic from solid, cetyl alcohol:ethanol mixtures (20-22% cetyl alcohol), summary; room temperature
QUANTITY_MEASURED: solubility

STRUCTURE_STRING	QUANTITY_MEASURED	TEST_RESULT
C[C@]12CCCCC1=CC[C@@H]1[C@@H]2CC[C@]2(C)C(=O)[C@H](F)C[C@@H]12	solubility	> 10 mg/mL

* * *

PROCEDURE_DETAILS: Solubility of fluasterone in solvents and mixed solvents
Format: physicochemical
EXPERIMENTAL_PARAMETERS: limonene, organic solvent or mixture, thermodynamic from solid

COMPOUND	solubility
C[C@]12CCCCC1=CC[C@@H]1[C@@H]2CC[C@]2(C)C(=O)[C@H](F)C[C@@H]12 [Fluasterone, 16α-fluoro-5-androsten-17-one]	22.6 mg/mL

* * *

PROCEDURE_DETAILS: Solubility of fluasterone in solvents and mixed solvents
Format: physicochemical
EXPERIMENTAL_PARAMETERS: ethanol, organic solvent or mixture, thermodynamic from solid

STRUCTURE_STRING	QUANTITY_UNIT	solubility
C[C@]12CCCCC1=CC[C@@H]1[C@@H]2CC[C@]2(C)C(=O)[C@H](F)C[C@@H]12	µg/mL	6600

* * *

PROCEDURE_DETAILS: Solubility of fluasterone in solvents and mixed solvents
Type: physicochemical
EXPERIMENTAL_PARAMETERS: isopropyl myristate, oil or lipid, thermodynamic from solid

COMPOUND	solubility
C[C@]12CCCCC1=CC[C@@H]1[C@@H]2CC[C@]2(C)C(=O)[C@H](F)C[C@@H]12 [Fluasterone, 16α-fluoro-5-androsten-17-one]	16 mg/mL

* * *

PROCEDURE_DETAILS: Solubility of fluasterone in solvents and mixed solvents
Assay type: physicochemical
EXPERIMENTAL_PARAMETERS: propylene glycol, organic solvent or mixture, thermodynamic from solid
QUANTITY_MEASURED: solubility

STRUCTURE_STRING	TEST_RESULT
C[C@]12CCCCC1=CC[C@@H]1[C@@H]2CC[C@]2(C)C(=O)[C@H](F)C[C@@H]12	> 500 µg/mL

* * *

PROCEDURE_DETAILS: Solubility of fluasterone in solvents and mixed solvents
Assay type: physicochemical
EXPERIMENTAL_PARAMETERS: 20% Tween 80-80% ethanol (v/v), organic solvent or mixture, thermodynamic from solid; room temperature

STRUCTURE_STRING	solubility
C[C@]12CCCCC1=CC[C@@H]1[C@@H]2CC[C@]2(C)C(=O)[C@H](F)C[C@@H]12	> 10000 µg/mL

* * *

PROCEDURE_DETAILS: Solubility of fluasterone in solvents and mixed solvents
Format: physicochemical
EXPERIMENTAL_PARAMETERS: 15% Tween 80-85% ethanol (v/v), organic solvent or mixture, thermodynamic from solid; room temperature

MOLECULE	solubility
C[C@]12CCCCC1=CC[C@@H]1[C@@H]2CC[C@]2(C)C(=O)[C@H](F)C[C@@H]12 [Fluasterone, 16α-fluoro-5-androsten-17-one]	< 10000 µg/mL

* * *

PROCEDURE_DETAILS: Solubility of fluasterone in solvents and mixed solvents
Assay type: physicochemical
EXPERIMENTAL_PARAMETERS: 10% Tween 80-90% ethanol (v/v), organic solvent or mixture, thermodynamic from solid; room temperature

STRUCTURE_STRING	solubility
C[C@]12CCCCC1=CC[C@@H]1[C@@H]2CC[C@]2(C)C(=O)[C@H](F)C[C@@H]12	< 10000 µg/mL

* * *

PROCEDURE_DETAILS: Solubility of fluasterone in solvents and mixed solvents
Assay type: physicochemical
EXPERIMENTAL_PARAMETERS: 50% Tween 80-50% ethanol (v/v), organic solvent or mixture, thermodynamic from solid; room temperature
Experimental: Fluasterone: The solubility of fluasterone in various solvents was determined by adding a specific volume of solvent to a weighed amount of fluasterone in a screw-capped glass vial and shaking vigorously for several minutes. […] Alternatively solubility was determined by adding a specific volume of solvent to a weighed amount of fluasterone in a screw-capped glass vial and warming the vial on a hot plate with vigorous shaking until the fluasterone dissolved. […]

STRUCTURE_STRING	solubility
C[C@]12CCCCC1=CC[C@@H]1[C@@H]2CC[C@]2(C)C(=O)[C@H](F)C[C@@H]12	> 14 mg/mL

* * *

Measured Thymus wt of individual entries
Test system: dexamethasone-induced thymic and splenic atrophy
PROCEDURE_DETAILS: Dexamethasone-induced thymic and splenic atrophy in mice
Assay type: in vivo, CD-1 mice
EXPERIMENTAL_PARAMETERS: Table 15; steroid 10 mg/kg in Cremophor-saline + dexamethasone
Description: Administration of dehydroepiandrosterone (DHEA, 60 mg/kg, s.c.) for three days partially reverse thymic and splenic atrophy induced by a single injection of dexamethasone (1.6 mg/mouse). In this experiment, the efficacy of either 10 mg/kg or 20 mg/kg DHEA administered s.c. versus the effect of 10 mg/kg or 20 mg/kg fluasterone was investigated. […]

COMPOUND	Thymus wt
C[C@]12CCCCC1=CC[C@@H]1[C@@H]2CC[C@]2(C)C(=O)[C@H](F)C[C@@H]12 [Fluasterone, 16α-fluoro-5-androsten-17-one]	67.5
C[C@@H]1C[C@H]2[C@@H]3CC=C4CCCC[C@]4(C)[C@H]3CC[C@]2(C)C1=O [16α-methyl-5-androsten-17-one]	28.0
C[C@H]1CC[C@@]2(C)C(=CC[C@@H]3[C@@H]2CC[C@]2(C)C(=O)[C@H](F)C[C@@H]32)C1 [3β-methyl-16α-fluoro-5-androsten-17-one]	43.8
C[C@H]1CC[C@@]2(C)C(=CC[C@@H]3[C@@H]2CC[C@]2(C)C(=O)[C@H](Cl)C[C@@H]32)C1 [3β-methyl-16α-chloro-5-androsten-17-one]	31.7

* * *

PROCEDURE_DETAILS: Solubility of fluasterone in solvents and mixed solvents
Type: physicochemical
EXPERIMENTAL_PARAMETERS: polyethylene glycol 400 (PEG-400), organic solvent or mixture, thermodynamic from solid
QUANTITY_MEASURED: solubility (µg/mL)

COMPOUND	TEST_RESULT
C[C@]12CCCCC1=CC[C@@H]1[C@@H]2CC[C@]2(C)C(=O)[C@H](F)C[C@@H]12 [Fluasterone, 16α-fluoro-5-androsten-17-one]	1100
